- assay.system: ZAP70 (human)
- protocol.details: radiometric filter-binding kinase assay
- experimental.conditions: compound 1.0 µM
metric: residual activity (%)

compound	recorded.measurement
CNc1nc(-c2ccc3c(N)n[nH]c3c2)cc(N2C[C@@H](C(=O)NC3CCCCC3)CC[C@H]2C)n1	98
CC1=C(CO)C(=O)O[C@@H]([C@@H](C)[C@H]2CC[C@H]3[C@@H]4C[C@H]5O[C@]56[C@@H](O)C=CC(=O)[C@]6(C)C4CC[C@]23C)C1 (some centres undefined)	113
O=C(NCCCNc1nc(Nc2cccc(CN3CCOCC3)c2)ncc1C1CC1)C1CCC1	94
O=C(Nc1nc2cc(C(F)(F)F)cc(NC3CC3)n2n1)c1cccnc1	84
